Would you mind telling me the reported pIC50 of each entry?
target: EGFR (Homo sapiens, UniProt P00533); construct: Kinases are expressed as either kinase domains or full length constructs; made in house; assay: Kinase inhibition assay (33P transfer), EGFR; type: biochemical; details: Table 2, kinase inhibition class; read-out: EGFR-1
Sequence (P00533 25-1210, species assumed): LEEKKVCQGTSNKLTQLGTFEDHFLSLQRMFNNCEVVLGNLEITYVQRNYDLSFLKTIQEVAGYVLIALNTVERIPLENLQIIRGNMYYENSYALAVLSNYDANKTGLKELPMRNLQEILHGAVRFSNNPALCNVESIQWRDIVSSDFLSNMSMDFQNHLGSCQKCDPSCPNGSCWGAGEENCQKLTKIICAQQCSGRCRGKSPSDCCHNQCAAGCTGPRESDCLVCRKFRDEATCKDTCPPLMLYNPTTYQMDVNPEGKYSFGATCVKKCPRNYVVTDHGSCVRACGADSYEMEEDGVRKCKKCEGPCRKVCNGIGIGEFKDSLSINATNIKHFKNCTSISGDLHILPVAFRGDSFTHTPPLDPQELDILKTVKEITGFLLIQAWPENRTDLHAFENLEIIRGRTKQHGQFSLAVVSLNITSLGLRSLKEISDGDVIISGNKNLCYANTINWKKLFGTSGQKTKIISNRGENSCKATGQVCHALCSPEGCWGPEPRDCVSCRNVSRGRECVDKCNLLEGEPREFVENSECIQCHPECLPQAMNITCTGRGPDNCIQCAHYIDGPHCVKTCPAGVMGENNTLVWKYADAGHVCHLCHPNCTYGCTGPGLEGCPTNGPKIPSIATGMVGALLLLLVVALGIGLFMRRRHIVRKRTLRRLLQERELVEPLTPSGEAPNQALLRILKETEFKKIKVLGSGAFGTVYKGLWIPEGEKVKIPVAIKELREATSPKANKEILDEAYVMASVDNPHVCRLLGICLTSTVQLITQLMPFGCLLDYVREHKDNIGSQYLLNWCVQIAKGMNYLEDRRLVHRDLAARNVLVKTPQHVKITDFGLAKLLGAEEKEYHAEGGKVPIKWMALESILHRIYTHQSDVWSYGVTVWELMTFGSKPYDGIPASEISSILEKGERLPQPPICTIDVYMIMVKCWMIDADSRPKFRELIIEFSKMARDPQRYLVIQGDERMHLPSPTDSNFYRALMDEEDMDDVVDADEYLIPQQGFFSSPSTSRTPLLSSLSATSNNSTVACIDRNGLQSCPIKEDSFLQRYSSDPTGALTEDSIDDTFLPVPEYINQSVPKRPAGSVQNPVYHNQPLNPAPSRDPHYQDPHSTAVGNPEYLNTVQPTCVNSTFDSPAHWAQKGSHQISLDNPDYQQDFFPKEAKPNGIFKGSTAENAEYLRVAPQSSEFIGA
pIC50: −log10 of the molar value.

Example molecules with recorded pIC50:
COc1cc(Nc2ncnc(NC(=O)NCc3ccccc3)n2)cc(OC)c1OC	5.23 to 6.01
COC(=O)n1c(=O)n(-c2ncnc(Nc3cc(OC)c(OC)c(OC)c3)n2)c2ccccc21	< 5.00
O=c1[nH]c2ccccc2n1-c1ncnc(Nc2ccc3[nH]ncc3c2)n1	< 4.88

// next item, pIC50 requested
Under EGFR (Homo sapiens, UniProt P00533): pIC50 value of O=C(O)Cc1cccc(Nc2ncnc(Nc3cc(-c4ccccc4)n[nH]3)n2)c1 ? > 5.99

###

biological target: Zap-70 (Homo sapiens, UniProt P43403); construct: Kinases are expressed as either kinase domains or full length constructs; made in house; test: Kinase inhibition assay (33P transfer), Zap-70; type: biochemical; conditions: Table 3; read-out: Zap-1
Sequence (P43403 whole entry, species assumed, the tested form may be a part): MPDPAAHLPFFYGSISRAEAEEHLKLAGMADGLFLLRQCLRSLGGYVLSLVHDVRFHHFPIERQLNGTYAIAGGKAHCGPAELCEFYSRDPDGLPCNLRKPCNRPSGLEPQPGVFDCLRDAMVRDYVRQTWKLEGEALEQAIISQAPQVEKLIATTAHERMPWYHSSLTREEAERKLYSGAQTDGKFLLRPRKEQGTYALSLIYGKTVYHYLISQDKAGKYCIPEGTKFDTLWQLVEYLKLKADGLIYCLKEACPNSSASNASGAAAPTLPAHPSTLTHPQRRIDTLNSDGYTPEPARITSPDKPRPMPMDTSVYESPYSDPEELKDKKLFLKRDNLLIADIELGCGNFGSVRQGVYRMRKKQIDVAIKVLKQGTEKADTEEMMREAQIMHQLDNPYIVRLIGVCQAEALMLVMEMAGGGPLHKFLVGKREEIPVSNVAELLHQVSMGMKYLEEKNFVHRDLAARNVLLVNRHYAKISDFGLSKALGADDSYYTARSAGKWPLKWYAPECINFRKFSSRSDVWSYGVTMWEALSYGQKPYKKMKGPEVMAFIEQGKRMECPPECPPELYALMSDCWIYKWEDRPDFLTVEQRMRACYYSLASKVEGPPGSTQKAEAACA
pIC50: −log10 of the molar value.
measure_name: pIC50

These recorded examples may help you get a feel for the data.
Clc1ncnc(Nc2ccc(OCc3ccccc3)cc2)n1	< 4.84
FC(F)(F)c1cccc(Nc2ncnc(-n3cccc3)n2)c1	< 4.83
OCc1cccc(Nc2ncnc(Nc3cc(-c4ccco4)n[nH]3)n2)c1	< 4.89
COc1cc(Nc2ncnc(-c3ccsc3)n2)cc(OC)c1OC	4.88 to 4.99
COc1cc(Nc2ncnc(Nc3ncncn3)n2)cc(OC)c1OC	< 4.90
CC(C)(C)OC(=O)NCc1ccc(Nc2ncnc(Nc3cc(-c4ccco4)n[nH]3)n2)cc1	< 5.00
COc1ccccc1Nc1nc2ccccc2n1-c1ncnc(Nc2cc(OC)c(OC)c(OC)c2)n1	< 5.05
COc1cc(Nc2ncnc(Nc3ccc(Br)c(Cl)c3)n2)cc(OC)c1OC	< 5.02
COc1cc(Nc2ncnc(N(c3ccc(Cl)cc3)c3nc4ccccc4[nH]3)n2)cc(OC)c1OC	< 5.05
COc1cc(Nc2ncnc(Nc3nnc(-c4ccccc4)[nH]3)n2)cc(OC)c1OC	< 4.97

For each of the molecules below, note its pIC50.
1. COc1cc(Nc2ncnc(Nc3ccc(O)cc3)n2)cc(OC)c1OC
2. FC(F)C(F)(F)Oc1cccc(Nc2ncnc(-c3ccnc(N4CCCCC4)c3)n2)c1
3. COc1cc(Nc2ncnc(Nc3nc4ccc(F)cc4s3)n2)cc(OC)c1OC
4. CC(C)(C)OC(=O)Nc1ccc(Nc2ncnc(Nc3ccc(OCc4ccccc4)cc3)n2)cc1
5. COc1cc(Nc2ncnc(Nc3ccc(Br)cc3)n2)cc(OC)c1OC
6. COc1cc(Nc2ncnc(-n3c(=O)sc4ccccc43)n2)cc(OC)c1OC
7. COc1cc(Nc2ncnc(Nc3cnc4ccccc4c3)n2)cc(OC)c1OC

1: < 4.91; 2: < 5.00; 3: < 4.98; 4: < 5.03; 5: < 4.98; 6: < 4.96; 7: < 4.95

###

I'd be grateful if you could share measured IC50 for these entries.
target: c-Met (Homo sapiens, UniProt P08581); construct: Kinases are expressed as either kinase domains or full length constructs; made in house; experiment: Kinase inhibition assay (33P transfer), c-Met; type: biochemical; conditions: Table 2, kinase inhibition class; read-out: Met-1
Sequence (P08581 25-1390): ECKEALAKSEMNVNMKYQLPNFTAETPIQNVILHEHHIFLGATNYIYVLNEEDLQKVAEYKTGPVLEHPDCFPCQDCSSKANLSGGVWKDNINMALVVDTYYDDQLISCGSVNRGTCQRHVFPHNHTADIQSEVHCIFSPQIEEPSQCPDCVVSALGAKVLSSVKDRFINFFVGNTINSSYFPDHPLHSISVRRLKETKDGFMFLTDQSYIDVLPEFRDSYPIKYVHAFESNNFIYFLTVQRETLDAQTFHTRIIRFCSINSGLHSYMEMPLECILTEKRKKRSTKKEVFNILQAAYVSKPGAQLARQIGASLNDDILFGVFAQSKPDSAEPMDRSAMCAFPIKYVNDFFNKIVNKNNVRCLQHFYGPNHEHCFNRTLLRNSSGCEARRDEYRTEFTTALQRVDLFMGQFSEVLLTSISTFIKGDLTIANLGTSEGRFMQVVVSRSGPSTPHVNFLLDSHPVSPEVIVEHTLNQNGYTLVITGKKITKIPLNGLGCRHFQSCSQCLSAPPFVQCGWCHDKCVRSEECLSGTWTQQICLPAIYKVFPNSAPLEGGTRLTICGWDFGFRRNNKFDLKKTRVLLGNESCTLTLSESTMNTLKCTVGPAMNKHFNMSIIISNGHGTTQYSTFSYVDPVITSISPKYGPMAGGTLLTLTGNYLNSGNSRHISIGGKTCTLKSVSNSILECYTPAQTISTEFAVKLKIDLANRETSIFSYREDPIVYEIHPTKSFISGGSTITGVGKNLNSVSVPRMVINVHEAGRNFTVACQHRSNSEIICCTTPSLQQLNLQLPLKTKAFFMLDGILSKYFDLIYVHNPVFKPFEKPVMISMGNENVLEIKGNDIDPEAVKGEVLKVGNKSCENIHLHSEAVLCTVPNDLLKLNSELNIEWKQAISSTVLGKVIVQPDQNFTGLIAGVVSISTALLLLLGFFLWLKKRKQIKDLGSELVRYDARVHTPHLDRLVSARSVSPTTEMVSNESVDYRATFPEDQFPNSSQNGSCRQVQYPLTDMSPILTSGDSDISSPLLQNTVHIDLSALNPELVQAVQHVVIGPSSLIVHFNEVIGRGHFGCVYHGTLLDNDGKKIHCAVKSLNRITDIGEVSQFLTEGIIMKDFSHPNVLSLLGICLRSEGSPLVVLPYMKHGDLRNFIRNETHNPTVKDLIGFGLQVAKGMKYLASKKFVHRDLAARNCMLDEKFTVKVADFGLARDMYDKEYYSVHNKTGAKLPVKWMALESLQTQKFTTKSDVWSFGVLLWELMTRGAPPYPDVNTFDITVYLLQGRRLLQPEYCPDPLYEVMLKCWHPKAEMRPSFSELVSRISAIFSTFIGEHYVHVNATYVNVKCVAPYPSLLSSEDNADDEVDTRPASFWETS

These solved cases illustrate the format of a correct answer.
COc1cc(Nc2ncnc(-c3ccc(N(C)C)nc3)n2)cc(OC)c1OC [Compound 449]	> 11.8 µM
COc1cc(Nc2ncnc(Nc3nc(-c4ccccc4)cs3)n2)cc(OC)c1OC [Compound 444]	> 10.3 µM
COc1cc(Nc2ncnc(-n3c(NCC(C)C)nc4ccccc43)n2)cc(OC)c1OC [Compound 407]	> 10 µM
COc1cc(Nc2ncnc(Nc3nc(C)cs3)n2)cc(OC)c1OC [Compound 468]	> 12 µM

Continue with the compound presented below.
Please report the recorded IC50 for COc1cc(Nc2ncnc(-n3c(=O)oc4ccccc43)n2)cc(OC)c1OC [Compound 423] . > 11.4 µM
